These measurements were taken from patent US10301317B2.

Listed here are compounds together with their documented IC50.
target: ERK2 enzyme (Homo sapiens (Human))
Sequence (P28482 whole entry): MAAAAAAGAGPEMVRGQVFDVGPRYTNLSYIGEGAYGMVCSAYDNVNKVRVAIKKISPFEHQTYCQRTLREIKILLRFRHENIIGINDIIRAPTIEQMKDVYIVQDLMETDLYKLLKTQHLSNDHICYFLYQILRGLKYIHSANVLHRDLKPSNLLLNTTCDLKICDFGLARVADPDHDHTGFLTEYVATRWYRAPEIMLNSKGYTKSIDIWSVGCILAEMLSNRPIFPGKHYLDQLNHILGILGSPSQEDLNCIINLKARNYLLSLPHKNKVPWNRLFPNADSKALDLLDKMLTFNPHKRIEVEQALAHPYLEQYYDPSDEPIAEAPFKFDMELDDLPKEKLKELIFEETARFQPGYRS
assay_name: Z'-LYTE kinase assay, inhibition of ERK activity
Assay type: biochemical
condition_details: In vitro Erk2, Z'-LYTE kinase assay, 100 μM ATP
measure: IC50

* COc1ccc(-c2n[nH]c3cc4[nH]c(=O)c(C5CCCN(Cc6ccccc6)C5)cc4cc23)cn1 (centres unmarked) | < 50 nM
* O=C1Nc2cc3[nH]nc(CC4CCOCC4)c3cc2CN1[C@@H]1CN(CC(F)(F)F)C[C@H]1c1ccccc1 | 50 to 250 nM

* * *

Tested on: phospho-p90 RSK (RSK1 Thr359/Ser363) in A375 (Braf V600E) cells
assay_name: Phospho-p90 RSK ELISA using A375 (Braf V600E) cells
Format: cell-based
condition_details: Homo sapiens, A-375, 2 hours compound treatment, read-out: Cellular Phospho-p90RSK IC50
pIC50: −log10 of the molar value.
measure: pIC50

* COc1ncc(-c2n[nH]c3cc4c(cc23)CN([C@@H]2CCCN(Cc3c(F)cccc3F)C2)C(=O)N4)cn1 | ≥ 6.60
* Cc1cc(-c2n[nH]c3cc4[nH]c(=O)c(C(CO)c5ccccc5)cc4cc23)ccn1 (centres unmarked) | ≥ 6.60
* COc1ccc(-c2n[nH]c3cc4c(cc23)CN([C@@H]2CCN(CC(F)(F)F)C2)C(=O)N4)cn1 | ≥ 6.60
* COc1ncc(-c2n[nH]c3cc4c(cc23)CN([C@@H]2CCCN(Cc3ccccc3F)C2)C(=O)N4)cn1 | ≥ 6.60
* Cc1cc(-c2n[nH]c3cc4c(cc23)CN(CCO)C(=O)N4)ccn1 | < 6.00
* Cc1cc(-c2n[nH]c3cc4c(cc23)CN([C@@H]2CCCN(Cc3ccc(F)cc3)C2)C(=O)N4)ccn1 | < 6.00
* COc1cccc(F)c1CN1CCC[C@@H](N2Cc3cc4c(-c5ccnnc5)n[nH]c4cc3NC2=O)C1 | ≥ 6.60
* Cc1cc(-c2n[nH]c3cc4c(cc23)CN([C@@H]2CCCN(Cc3ccsc3)C2)C(=O)N4)ccn1 | ≥ 6.60
* Cc1ncccc1-c1n[nH]c2cc3[nH]c(=O)c(C(C)c4ccccc4)cc3cc12 (centres unmarked) | < 6.00
* Cc1cc(-c2n[nH]c3cc4c(cc23)CN([C@H]2CN(CC(F)F)C[C@@H]2c2ccccc2)C(=O)N4)ccn1 | < 6.00
* Cc1cc(-c2n[nH]c3cc4c(cc23)CN(C(C)c2nccs2)C(=O)N4)ccn1 (centres unmarked) | ≥ 6.60
* Cc1cc(-c2n[nH]c3cc4c(cc23)CN([C@@H]2CCN(c3ccc(F)cn3)C2)C(=O)N4)ccn1 | 6.00 to 6.60
* Cc1cc(-c2n[nH]c3cc4c(cc23)CN(C2CN(Cc3cc(F)cc(F)c3)CC(F)(F)C2)C(=O)N4)ccn1 (centres unmarked) | < 6.00
* Cc1cc(-c2n[nH]c3cc4c(cc23)CN([C@@H]2CN(C)C[C@H]2C(C)C)C(=O)N4)ccn1 (mixture of isomers) | < 6.00
* Cc1cc(-c2n[nH]c3cc4[nH]c(=O)c(C(O)c5ccccc5)cc4cc23)ccn1 (centres unmarked) | 6.00 to 6.60
* Cc1cc(-c2n[nH]c3cc4c(cc23)CN([C@@H]2CCCN(CC(F)(F)F)C2)C(=O)N4)cc(C)n1 | ≥ 6.60
* Cn1nccc1-c1n[nH]c2cc3c(cc12)CN([C@@H]1CN(CC(F)(F)F)C[C@H]1c1ccccc1)C(=O)N3 | < 6.00
* Cc1cc(-c2n[nH]c3cc4c(cc23)CN([C@@H]2CN(CC(F)(F)F)C[C@H]2C(C)(C)C)C(=O)N4)ccn1 | < 6.00
* Cc1cc(-c2n[nH]c3cc4c(cc23)CN([C@@H]2CCCN(Cc3ccc(F)c(F)c3)C2)C(=O)N4)ccn1 | ≥ 6.60
* Cc1cc(-c2n[nH]c3cc4[nH]c(=O)c(Cc5ccc(F)cc5)cc4cc23)ccn1 | 6.00 to 6.60
* COc1ncc(-c2n[nH]c3cc4c(cc23)CN([C@H](CO)c2cccc(Cl)c2)C(=O)N4)cn1 | ≥ 6.60
* Cc1cc(-c2n[nH]c3cc4c(cc23)CN([C@H]2CN(CC(F)F)C[C@@H]2c2ccccc2)C(=O)N4)cc(C)n1 | < 6.00
* Cc1cc(-c2n[nH]c3cc4c(cc23)CN([C@@H]2CCCN(Cc3cccnc3C(F)(F)F)C2)C(=O)N4)ccn1 | ≥ 6.60
* Cc1cc(-c2n[nH]c3cc4c(cc23)CN([C@@H]2CCCN(C3CCCCC3)C2)C(=O)N4)ccn1 | 6.00 to 6.60
* Cc1ccc(-c2n[nH]c3cc4c(cc23)CN([C@@H]2CCCN(Cc3ccc(F)cc3F)C2)C(=O)N4)cn1 | ≥ 6.60
* O=C1Nc2cc3[nH]nc(-c4ccc(=O)[nH]c4)c3cc2CN1Cc1cccc(Cl)c1 | < 6.00
* COc1ncc(-c2n[nH]c3cc4c(cc23)CN([C@@H]2CN(C)C[C@H]2c2ccccc2)C(=O)N4)cn1 (mixture of isomers) | 6.00 to 6.60
* Cc1cc(-c2n[nH]c3cc4c(cc23)CN(Cc2ccc(F)c(Cl)c2)C(=O)N4)cc(C)n1 | ≥ 6.60
* CC(c1ccccc1)c1cc2cc3c(NC4CCOCC4)n[nH]c3cc2[nH]c1=O (centres unmarked) | ≥ 6.60
